Entries and their measured EC50 follow.
# tested-target: CFTR (Homo sapiens)
# Sequence (P13569 with tags, fused parts or gaps DEL508-508): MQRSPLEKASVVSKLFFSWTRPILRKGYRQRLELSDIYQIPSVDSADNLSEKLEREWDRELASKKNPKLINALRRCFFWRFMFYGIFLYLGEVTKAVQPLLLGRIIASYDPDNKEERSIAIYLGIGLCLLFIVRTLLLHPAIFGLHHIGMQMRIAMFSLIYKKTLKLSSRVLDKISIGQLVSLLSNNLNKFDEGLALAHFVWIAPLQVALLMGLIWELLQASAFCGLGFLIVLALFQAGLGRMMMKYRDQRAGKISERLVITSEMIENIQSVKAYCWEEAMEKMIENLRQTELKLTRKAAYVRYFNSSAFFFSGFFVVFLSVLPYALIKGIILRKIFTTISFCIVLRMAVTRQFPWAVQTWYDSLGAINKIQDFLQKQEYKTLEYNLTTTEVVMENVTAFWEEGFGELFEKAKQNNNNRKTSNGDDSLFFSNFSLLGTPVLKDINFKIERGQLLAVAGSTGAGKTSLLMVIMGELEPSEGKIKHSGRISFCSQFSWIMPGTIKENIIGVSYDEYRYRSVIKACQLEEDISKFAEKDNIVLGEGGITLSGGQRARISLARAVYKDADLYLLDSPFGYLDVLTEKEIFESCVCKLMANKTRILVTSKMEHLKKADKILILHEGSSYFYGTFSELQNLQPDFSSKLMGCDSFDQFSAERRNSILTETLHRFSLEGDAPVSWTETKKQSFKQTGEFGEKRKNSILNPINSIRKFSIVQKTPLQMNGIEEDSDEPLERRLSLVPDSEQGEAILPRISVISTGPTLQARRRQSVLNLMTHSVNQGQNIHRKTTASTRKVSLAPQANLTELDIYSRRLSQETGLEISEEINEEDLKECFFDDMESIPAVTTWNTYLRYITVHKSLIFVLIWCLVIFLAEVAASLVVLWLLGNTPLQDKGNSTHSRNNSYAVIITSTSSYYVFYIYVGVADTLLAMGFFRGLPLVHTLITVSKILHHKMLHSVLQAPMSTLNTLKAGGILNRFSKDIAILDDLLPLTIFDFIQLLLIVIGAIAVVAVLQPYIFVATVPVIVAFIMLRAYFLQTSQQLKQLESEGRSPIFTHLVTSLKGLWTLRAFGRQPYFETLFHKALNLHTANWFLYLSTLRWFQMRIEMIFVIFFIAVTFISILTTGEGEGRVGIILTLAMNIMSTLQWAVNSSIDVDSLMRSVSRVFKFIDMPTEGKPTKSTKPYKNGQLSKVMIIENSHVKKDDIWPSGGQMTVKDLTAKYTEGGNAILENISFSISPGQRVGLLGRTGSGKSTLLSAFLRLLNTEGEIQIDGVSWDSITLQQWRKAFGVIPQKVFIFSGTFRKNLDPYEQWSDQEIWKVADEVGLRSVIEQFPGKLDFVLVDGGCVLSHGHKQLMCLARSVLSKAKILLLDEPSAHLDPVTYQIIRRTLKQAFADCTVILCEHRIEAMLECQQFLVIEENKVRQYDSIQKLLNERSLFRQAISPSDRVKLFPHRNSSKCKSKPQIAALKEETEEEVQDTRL
# protocol: Membrane potential dye, Enteroid Assay B
# Assay type: cell-based
# condition-description: Table 9; read-out: Ent. B EC50

Worked cases, EC50 given:
>>> print(df.to_string())
                           molecular_string  experimental_value
0  Cc1cccc(C)c1-c1cc2nc(n1)NS(=O)(=O)c1cccc(c1)C(=O)N(Cc1ncc(Br)cn1)[C@H](CC(C)(C)C)CO2              < 1 µM
1  Cc1cccc(C)c1-c1cc2nc(n1)NS(=O)(=O)c1cccc(c1)C(=O)N(CC13CCC(O)(CC1)CC3)[C@H](CC(C)(C)C)CO2              < 1 µM

Quick check: EC50 of `CCN1C(=O)c2cccc(c2)S(=O)(=O)Nc2nc(cc(-c3c(C)cccc3C)n2)O[C@@H]2CN(C3CC4(CCCC4)C3)C[C@H]21` ?
< 1 µM
